# Tested on: KRAS-mutant PDC multicell tumor spheroid viability;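 further: viability read after seven days of drug exposure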
# test_name: Anticancer human tumor 521955-158-R2-J5-PDC patient-derived pancreatic carcinoma cell line growth inhibition [KRAS2]
# measurement_context: second compound 10 µM; first compound 0.001 µM; stronger effect = lower value
Kindly supply the reported viability, T/C values for the records listed here.
State the answer as a number, implicitly in %.

Ask: Given the molecule CN(C)C/C=C/C(=O)Nc1cc2c(Nc3ccc(F)c(Cl)c3)ncnc2cc1O[C@H]1CCOC1 + COc1cc2nc(C)nc(NC(C)c3cc(N)cc(C(F)(F)F)c3)c2cc1OC1CCOC1 , what is its reported viability, T/C?
Reply: 82.8

Ask: Given the entry CC(=O)Nc1cccc(-n2c(=O)n(C3CC3)c(=O)c3c(Nc4ccc(I)cc4F)n(C)c(=O)c(C)c32)c1 + CC1OCC2(CCN(c3cnc(Sc4ccnc(N)c4Cl)c(N)n3)CC2)C1N , report its measured viability, T/C.
Reply: 23.3

Ask: Form field: reported viability, T/C of CC(C)n1nc(-c2ccc3oc(N)nc3c2)c2c(N)ncnc21 + C=CC(=O)N1CCN(c2nc(=O)n(-c3c(C)ccnc3C(C)C)c3nc(-c4c(O)cccc4F)c(F)cc23)C(C)C1
Reply: 46.9

Ask: Any idea what viability, T/C was measured for CC(C)n1nc(-c2ccc3oc(N)nc3c2)c2c(N)ncnc21 + COc1cc2nc(C)nc(NC(C)c3cc(N)cc(C(F)(F)F)c3)c2cc1OC1CCOC1 ?
Reply: 32.4

Ask: Please report the recorded viability, T/C for Cn1ncnc1[C@H]1c2n[nH]c(=O)c3cc(F)cc(c23)N[C@@H]1c1ccc(F)cc1 + CC1OCC2(CCN(c3cnc(Sc4ccnc(N)c4Cl)c(N)n3)CC2)C1N .
Reply: 47.5

Ask: Requested field: viability, T/C. Item: CC(=O)Nc1cccc(-n2c(=O)n(C3CC3)c(=O)c3c(Nc4ccc(I)cc4F)n(C)c(=O)c(C)c32)c1 + COc1cc2nc(C)nc(NC(C)c3cc(N)cc(C(F)(F)F)c3)c2cc1OC1CCOC1
Reply: 26.8

Ask: viability, T/C for CC(C)n1nc(-c2ccc3oc(N)nc3c2)c2c(N)ncnc21 + CNCc1ccccc1-c1csc(C(C)Nc2nc(C)nc3cc(OC)c(OC)cc23)c1 ?
Reply: 0.15

Ask: For the molecule shown here, CC(C)n1nc(-c2ccc3oc(N)nc3c2)c2c(N)ncnc21 + CC1OCC2(CCN(c3cnc(Sc4ccnc(N)c4Cl)c(N)n3)CC2)C1N , give the reported viability, T/C.
Reply: 50.1

Ask: Dear colleague, I am looking for the recorded viability, T/C of the following molecule: CC(=O)Nc1cccc(-n2c(=O)n(C3CC3)c(=O)c3c(Nc4ccc(I)cc4F)n(C)c(=O)c(C)c32)c1 + C=CC(=O)N1CCN(c2nc(=O)n(-c3c(C)ccnc3C(C)C)c3nc(-c4c(O)cccc4F)c(F)cc23)C(C)C1
Reply: 28.8

Ask: Can you share its viability, T/C? I mean this molecule: CN(C)C/C=C/C(=O)Nc1cc2c(Nc3ccc(F)c(Cl)c3)ncnc2cc1O[C@H]1CCOC1 + CNCc1ccccc1-c1csc(C(C)Nc2nc(C)nc3cc(OC)c(OC)cc23)c1
Reply: 0.27

Ask: Name the recorded viability, T/C for CN(C)C/C=C/C(=O)Nc1cc2c(Nc3ccc(F)c(Cl)c3)ncnc2cc1O[C@H]1CCOC1 + C=CC(=O)N1CCN(c2nc(=O)n(-c3c(C)ccnc3C(C)C)c3nc(-c4c(O)cccc4F)c(F)cc23)C(C)C1 .
Reply: 72.4
